Cited source: the supplement of paper PMC9170038

system: K4 kissing-loop RNA reporter; assay: apparent KD of K4 kissing-loop reporter; higher = weaker reporter binding; details: Eterna round: R107; input ligand: tryptophan 2.4 mM;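 also: bound reporter read as fluorescence of individual clusters on recovered sequencing chips by microscopy, with normalized cluster intensities fitted with a binding model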
reported_metric: apparent KD of K4 kissing-loop reporter (nM)
Numbers only; they are read as nM.

Examples with answers:
ordered_residues	measurement_target	apparent KD of K4 kissing-loop reporter, nM
GCCGCAAGGAUAGCAGCAAUAGGCGCUCGCUAGGAUAUCUGGAAACAGAGAAGGAGCUGGAGUGAUGUUUUACCUCCUAAAAUUA	K4 kissing-loop RNA reporter	1070
AAAUAAGCUCAUGAUACCAGCCAGUGAUGUUGGUUGGUCCACCGUGUCCGAACAUUAAGCGGCCCUUGGCAGCAUGAUGCGCGUA [Xearxea]	K4 kissing-loop RNA reporter	118
CGAUGUUCCUGGGAUACCAGUCGGAGUCUCAGAGCUCGGAGUGAUGUUCUGGGAUGUUUCGGCCCUUGGCAGCUCUGGGACUCCU [#2 Exclusion - Theophylline B Attempt #22 (HarryS)]	K4 kissing-loop RNA reporter	662
AAGUGUUCUAGUGAUACCAGACAUUUCUAUUACAUUAAUAUAGCUAAGUGAUGUUUAGCAGUCCCUUGGCAGCACUAUUUCACUA [JR_SSTheophyB_Sub015]	K4 kissing-loop RNA reporter	191
UGGACCGCCUGAGGAUAUAGGGACGAGUGAUGUUCGUGGACCAGAGCCAGUGAUGUUGGGUUAUUUCUAGAAGGCGGGCGAACUU [Exclusion FMN B GF11]	K4 kissing-loop RNA reporter	146

What reported apparent KD of K4 kissing-loop reporter corresponds to UCCUGCAAUCGACCACGAAAGUGGUUCGAUACCAGAGUCGAAAGACUCCCUUGGCAGCGAGUGAUGUUCGAGCAGGUAAAAUAAA on K4 kissing-loop RNA reporter?
472

What reported apparent KD of K4 kissing-loop reporter corresponds to UUUAUAUAGUCGGCCGCCACUGAUUUUUUUAUAUGUUUAUGUUUAUACGAGUGAUGUUCGAUAUACAGGACCGGGACUUUGGUUA [JR_SSTryptoB_Sub019] on K4 kissing-loop RNA reporter?
115
